tested on: Detroit562 (Head and Neck Carcinoma); assay: Bliss excess, mean over the matrix (fraction); higher = more synergy;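 further: after 72 h of two-drug dosing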
Label Yes when Bliss excess >= -0.02; otherwise No.

Please indicate if the recorded Bliss excess for CC(=O)c1c(C)c2cnc(Nc3ccc(N4CCNCC4)cn3)nc2n(C2CCCC2)c1=O [Palbociclib] + Cc1c2c(nn1C)CSCc1cc(n(C)n1)CSc1cc(c3ccccc3c1)OCCCc1c(C(=O)O)n(C)c3c-2c(Cl)ccc13 [AZD5991] (first compound max 10 µM, 7x7, partner max 1 µM) meets or exceeds -0.02. Yes

Please indicate if the recorded Bliss excess for Cc1cc2ncnn2cc1Nc1ncc2c(n1)n(C1CCOCC1)c(=O)n2C [AZD7648] + CCN(CCO)CCCOc1ccc2c(Nc3cc(CC(=O)Nc4cccc(F)c4)[nH]n3)ncnc2c1 [AZD2811] (first compound max 10 µM, 7x7, partner max 1 µM) meets or exceeds -0.02. Yes

Please indicate if the recorded Bliss excess for CC1(C)CCC(CN2CCN(c3ccc(C(=O)NS(=O)(=O)c4ccc(NCC5CCOCC5)c([N+](=O)[O-])c4)c(Oc4cnc5[nH]ccc5c4)c3)CC2)=C(c2ccc(Cl)cc2)C1 [Venetoclax] + CN(C)CCCOc1ccc(-c2ccc3ncc4c(c3c2)n(C2CCOCC2)c(=O)n4C)cn1 [AZD0156] (first compound max 1 µM, 7x7, partner max 1 µM) meets or exceeds -0.02. No

Please indicate if the recorded Bliss excess for NC1(C(=O)N[C@@H](CCO)c2ccc(Cl)cc2)CCN(c2ncnc3[nH]ccc23)CC1 [Capivasertib] + COc1nnc2ccc(N3CCC(c4ccc(OCCN5CCN(C)C(=O)[C@H]5C)cc4)CC3)nn12 [AZD5153] (first compound max 10 µM, 7x7, partner max 1 µM) meets or exceeds -0.02. No

Please indicate if the recorded Bliss excess for Cc1c2c(nn1C)CSCc1cc(n(C)n1)CSc1cc(c3ccccc3c1)OCCCc1c(C(=O)O)n(C)c3c-2c(Cl)ccc13 [AZD5991] + C1CN(CCC1(C(=O)N[C@@H](CCO)C2=CC=C(C=C2)Cl)N)C3=NC=NC4=C3C=CN4 [Capivasertib] (first compound max 1 µM, 7x7, partner max 3 µM) meets or exceeds -0.02. No

Please indicate if the recorded Bliss excess for Cn1cnc2c(F)c(Nc3ccc(Br)cc3Cl)c(C(=O)NOCCO)cc21 [Selumetinib] + CCN(CCO)CCCOc1ccc2c(Nc3cc(CC(=O)Nc4cccc(F)c4)[nH]n3)ncnc2c1 [AZD2811] (first compound max 10 µM, 7x7, partner max 1 µM) meets or exceeds -0.02. Yes

Please indicate if the recorded Bliss excess for COc1cc2ncnc(Nc3ccc(F)c(Cl)c3)c2cc1OCCCN1CCOCC1 [Gefitinib] + CC(C)n1c(=O)n(C)c2cnc3cc(F)c(-c4ccc(OCCCN5CCCCC5)nc4)cc3c21 [AZD1390] (first compound max 10 µM, 7x7, partner max 0.3 µM) meets or exceeds -0.02. No

Please indicate if the recorded Bliss excess for CC(=O)c1c(C)c2cnc(Nc3ccc(N4CCNCC4)cn3)nc2n(C2CCCC2)c1=O [Palbociclib] + CC1(C)CCC(CN2CCN(c3ccc(C(=O)NS(=O)(=O)c4ccc(NCC5CCOCC5)c([N+](=O)[O-])c4)c(Oc4cnc5[nH]ccc5c4)c3)CC2)=C(c2ccc(Cl)cc2)C1 [Venetoclax] (first compound max 10 µM, 7x7, partner max 1 µM) meets or exceeds -0.02. Yes
